- Test system: 598228-144-R-J1-PDC complex spheroids, viability;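 note: spheroids exposed to compounds for seven days before readout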
- procedure_summary: Anticancer human tumor 598228-144-R-J1-PDC patient-derived serous endometrial adenocarcinoma cell line growth inhibition [CLK]
- experimental_parameters: curve of first compound; second compound 0.316 µM
pIC50: −log10 of the molar value.
Overview of recorded pIC50 for various molecules

molecule	pIC50
O=c1[nH]cc(F)c(=O)[nH]1 + CN1CCN(c2cc(C(=O)Nc3cc4cc(-c5cnn(C)c5)ccc4cn3)ccn2)CC1	> 7.50
CC(=O)O[C@H]1C(=O)[C@@]2(C)[C@H]([C@H](OC(=O)c3ccccc3)[C@]3(O)C[C@H](OC(=O)[C@H](O)[C@@H](NC(=O)c4ccccc4)c4ccccc4)C(C)=C1C3(C)C)[C@]1(OC(C)=O)CO[C@@H]1C[C@@H]2O + CNC(=O)c1ccc(Nc2nc(OC3CCCC3)c3c(-c4ccc5nc(C)oc5c4)c[nH]c3n2)c(OC)c1	< 5.00
CC1COCCN1c1cc(C2(S(C)(=N)=O)CC2)nc(-c2ccnc3[nH]ccc23)n1 (stereo not given) + CN1CCN(c2cc(C(=O)Nc3cc4cc(-c5cnn(C)c5)ccc4cn3)ccn2)CC1	> 7.50
O=C(c1cc(Cc2n[nH]c(=O)c3ccccc23)ccc1F)N1CCN(C(=O)C2CC2)CC1 + CN1CCN(c2cc(C(=O)Nc3cc4cc(-c5cnn(C)c5)ccc4cn3)ccn2)CC1	> 7.50
NC(=O)C(=Cn1cnc(-c2cc(C(F)(F)F)cc(C(F)(F)F)c2)n1)c1cncnc1 + CNC(=O)c1ccc(Nc2nc(OC3CCCC3)c3c(-c4ccc5nc(C)oc5c4)c[nH]c3n2)c(OC)c1	6.19
Cn1ncnc1[C@H]1c2n[nH]c(=O)c3cc(F)cc(c23)N[C@@H]1c1ccc(F)cc1 + CNC(=O)c1ccc(Nc2nc(OC3CCCC3)c3c(-c4ccc5nc(C)oc5c4)c[nH]c3n2)c(OC)c1	< 7.00
CC(CO)NC(=O)c1cc(-c2ccc(Cl)cc2)nn(-c2cnn(C)c2)c1=O (stereo not given) + CN1CCN(c2cc(C(=O)Nc3cc4cc(-c5cnn(C)c5)ccc4cn3)ccn2)CC1	> 7.50
CCN1CCN(Cc2ccc(Nc3ncc(F)c(-c4cc(F)c5nc(C)n(C(C)C)c5c4)n3)nc2)CC1 + CN1CCN(c2cc(C(=O)Nc3cc4cc(-c5cnn(C)c5)ccc4cn3)ccn2)CC1	> 8.50
Cn1ncnc1[C@H]1c2n[nH]c(=O)c3cc(F)cc(c23)N[C@@H]1c1ccc(F)cc1 + CN1CCN(c2cc(C(=O)Nc3cc4cc(-c5cnn(C)c5)ccc4cn3)ccn2)CC1	> 9.50
CC(Nc1ccc2c(c1)OCCn1cc(N3C(=O)OCC3C(F)F)nc1-2)C(N)=O (stereo not given) + CN1CCN(c2cc(C(=O)Nc3cc4cc(-c5cnn(C)c5)ccc4cn3)ccn2)CC1	> 7.50
